Test: DUSP6 inhibitors restoring Erk phosphorylation by chemical complementation, primary imaging in DUSP6-transfected HeLa (AID 609)
Settings: HeLa MKP-3 transfected, phospho-Erk imaging KS statistic; measured here: nuclear c-Myc green intensity z-score; at 10 µM; cells stimulated with TPA for 15 min
QUANTITY_KIND: z-score
Give the figure by itself; no unit, no explanation.

{"COMPOUND": "Cc1cccc(C)c1N1C(=O)C2ON(c3ccccc3)C(c3ccncc3)C2C1=O (stereo not given)", "z-score": 0.0518}
{"COMPOUND": "COc1ccccc1C(=O)N1CCCC1(C#N)c1ccccc1 (stereo not given)", "z-score": -0.677}
{"COMPOUND": "Cc1cn2c(-c3ccncc3)nnc2s1", "z-score": 0.607}
{"COMPOUND": "COCCNc1cc(C)c(C#N)c2nc3ccccc3n12", "z-score": 1.04}
{"COMPOUND": "N#Cc1nc(COc2ccc(Br)cc2)oc1N1CCCC1", "z-score": 1.26}

Fill in the blank: the reported z-score of Cc1cc(C)c(C#N)c(SCc2[nH]nc3c2C(c2ccccc2)C(C#N)=C(N)O3)n1 (stereo not given) is ____. -0.343
